# assay_target: HCV Core 134-171-TT peptide (ALRZ-9 peptide) (HCV-1)
# assay_overview: SPR, captured mAb;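 also: Anti-HCV Core mAbs from hybridoma supernatants held on a rabbit anti-mouse IgG CM5 surface, peptide flowed over 3 min then 4 min dissociation, duplicate concentrations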

[
  {
    "binder": "HCV 208A-207 (antibody, V domains shown) VH: QGQLQQPGAEFVKPGASLKLSCRASGYTFTSYWIHWVKQRPGQGLEWIGEIDPSDSYINQNQKFRGKATLTVDKSSSTAYMELSGLTSEDSAVYYCARHYYGVLDSWGQGTTLTVSS VL: DIVLTQSPATLSVTPGDRVSLSCRASQRIYNYLHWYQQKSHESPRLLTKYASQSISGIPSRFSGSGSGTDFILTINSVETEDFGMYFCQQSNSWPLTFGAGTKLELRR",
    "Kd": "< 0.032 nM"
  }
]

Taken from patent US9371374.
